Entries annotated with measured Activity
molecular target: Protein cereblon/Histone acetyltransferase p300 (Homo sapiens) (UniProt Q09472+Q96SW2); experiment: Protac activity at E3 ubiquitin ligase/P300 in human LNcaP cells assessed as degradation of P300 at 10 nM by immunoblotting analysis relative to control; type: cell-based
Sequence (Q09472 2-2414 limits assumed): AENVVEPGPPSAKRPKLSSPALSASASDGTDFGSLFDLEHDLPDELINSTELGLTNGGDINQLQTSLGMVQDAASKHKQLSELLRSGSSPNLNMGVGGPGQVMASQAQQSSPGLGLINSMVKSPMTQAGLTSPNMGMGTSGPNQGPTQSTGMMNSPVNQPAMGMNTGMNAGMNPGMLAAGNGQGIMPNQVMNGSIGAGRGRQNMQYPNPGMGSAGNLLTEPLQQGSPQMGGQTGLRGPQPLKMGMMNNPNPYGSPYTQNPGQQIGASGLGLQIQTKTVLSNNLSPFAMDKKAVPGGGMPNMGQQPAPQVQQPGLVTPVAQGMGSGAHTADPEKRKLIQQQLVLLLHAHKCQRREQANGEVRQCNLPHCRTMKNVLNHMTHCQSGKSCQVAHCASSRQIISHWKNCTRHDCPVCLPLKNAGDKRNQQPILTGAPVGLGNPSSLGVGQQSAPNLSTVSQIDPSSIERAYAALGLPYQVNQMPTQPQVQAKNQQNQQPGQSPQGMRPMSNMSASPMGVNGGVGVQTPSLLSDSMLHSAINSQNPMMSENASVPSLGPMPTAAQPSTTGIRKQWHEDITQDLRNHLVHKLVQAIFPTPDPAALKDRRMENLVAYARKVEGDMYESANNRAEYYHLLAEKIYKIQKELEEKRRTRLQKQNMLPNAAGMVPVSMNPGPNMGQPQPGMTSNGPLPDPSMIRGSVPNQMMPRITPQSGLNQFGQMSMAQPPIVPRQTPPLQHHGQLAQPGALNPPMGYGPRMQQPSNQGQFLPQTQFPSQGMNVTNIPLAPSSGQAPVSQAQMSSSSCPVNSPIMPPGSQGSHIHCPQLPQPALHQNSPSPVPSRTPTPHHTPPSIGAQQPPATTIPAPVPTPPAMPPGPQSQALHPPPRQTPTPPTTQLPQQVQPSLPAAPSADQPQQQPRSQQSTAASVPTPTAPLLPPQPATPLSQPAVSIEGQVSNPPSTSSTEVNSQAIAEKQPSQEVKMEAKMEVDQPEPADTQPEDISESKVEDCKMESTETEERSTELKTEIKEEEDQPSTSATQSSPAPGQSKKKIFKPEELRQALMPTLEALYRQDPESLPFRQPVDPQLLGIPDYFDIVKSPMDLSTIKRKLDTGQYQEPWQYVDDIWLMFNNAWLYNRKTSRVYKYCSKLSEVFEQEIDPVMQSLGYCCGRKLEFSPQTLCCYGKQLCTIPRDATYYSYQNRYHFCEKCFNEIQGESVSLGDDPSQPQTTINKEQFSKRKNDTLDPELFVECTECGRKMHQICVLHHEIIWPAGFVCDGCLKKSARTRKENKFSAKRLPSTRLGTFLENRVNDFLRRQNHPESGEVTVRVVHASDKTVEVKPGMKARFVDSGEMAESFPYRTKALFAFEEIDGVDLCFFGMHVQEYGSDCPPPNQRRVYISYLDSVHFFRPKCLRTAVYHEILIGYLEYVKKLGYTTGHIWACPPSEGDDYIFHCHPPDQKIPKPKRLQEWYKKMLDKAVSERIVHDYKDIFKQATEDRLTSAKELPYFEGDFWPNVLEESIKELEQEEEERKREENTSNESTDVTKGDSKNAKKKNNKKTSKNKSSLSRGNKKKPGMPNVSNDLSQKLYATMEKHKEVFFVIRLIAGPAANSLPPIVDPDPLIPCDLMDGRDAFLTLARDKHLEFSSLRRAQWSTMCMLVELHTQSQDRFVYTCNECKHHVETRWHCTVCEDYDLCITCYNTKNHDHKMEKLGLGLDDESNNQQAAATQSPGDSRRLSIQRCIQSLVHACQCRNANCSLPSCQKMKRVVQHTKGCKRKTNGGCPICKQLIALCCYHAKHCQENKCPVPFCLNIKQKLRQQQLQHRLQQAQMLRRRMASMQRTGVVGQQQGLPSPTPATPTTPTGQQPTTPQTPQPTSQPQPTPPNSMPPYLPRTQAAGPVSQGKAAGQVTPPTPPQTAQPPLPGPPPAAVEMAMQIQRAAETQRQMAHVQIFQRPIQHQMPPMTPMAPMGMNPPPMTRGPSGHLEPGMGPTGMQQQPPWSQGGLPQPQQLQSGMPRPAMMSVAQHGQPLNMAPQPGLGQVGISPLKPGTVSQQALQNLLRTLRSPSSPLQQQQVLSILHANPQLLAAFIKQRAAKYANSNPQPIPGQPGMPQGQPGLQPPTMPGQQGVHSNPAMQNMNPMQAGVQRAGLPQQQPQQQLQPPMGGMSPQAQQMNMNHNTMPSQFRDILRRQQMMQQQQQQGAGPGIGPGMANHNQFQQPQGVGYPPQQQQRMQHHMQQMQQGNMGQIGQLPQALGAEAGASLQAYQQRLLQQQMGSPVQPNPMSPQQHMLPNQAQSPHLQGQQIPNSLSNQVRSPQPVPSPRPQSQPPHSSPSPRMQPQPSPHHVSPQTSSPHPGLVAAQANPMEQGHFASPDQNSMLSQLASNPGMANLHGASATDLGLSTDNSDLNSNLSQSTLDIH
Sequence (Q96SW2 whole entry partner): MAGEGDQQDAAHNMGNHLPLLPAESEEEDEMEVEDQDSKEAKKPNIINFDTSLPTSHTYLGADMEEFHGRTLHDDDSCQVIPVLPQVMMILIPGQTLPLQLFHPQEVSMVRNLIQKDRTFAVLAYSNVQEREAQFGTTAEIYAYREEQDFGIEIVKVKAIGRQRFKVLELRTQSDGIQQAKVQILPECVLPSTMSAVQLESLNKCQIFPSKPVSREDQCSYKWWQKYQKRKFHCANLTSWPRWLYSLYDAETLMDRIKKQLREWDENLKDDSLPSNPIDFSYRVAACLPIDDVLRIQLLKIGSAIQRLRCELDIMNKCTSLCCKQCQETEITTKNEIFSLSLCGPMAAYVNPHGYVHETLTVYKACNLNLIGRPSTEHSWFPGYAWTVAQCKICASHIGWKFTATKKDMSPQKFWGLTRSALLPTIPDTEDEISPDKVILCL

For orientation, consider the following solved cases.
CC(=O)N1CCc2c(c(N3CCCc4cc(-c5cnn(C)c5)c(C(F)F)cc43)nn2C2CCN(CCN3CCN(C#Cc4ccc5c(c4)n(C)c(=O)n5C4CCC(=O)NC4=O)CC3)CC2)C1 (stereo not drawn) ... > 80%
CC(=O)N1CCc2c(c(N3CCCc4cc(-c5cnn(C)c5)c(C(F)F)cc43)nn2C2CCN(CCN3CCC(CCc4ccc5c(c4)n(C)c(=O)n5C4CCC(=O)NC4=O)CC3)CC2)C1 (stereo not drawn) ... > 80%

Task item: Please report the recorded Activity for CC(=O)N1CCc2c(c(N3CCCc4cc(-c5cnn(C)c5)c(C(F)F)cc43)nn2C2CCN(C(=O)CN3CCC(CCc4cccc5c4n(C)c(=O)n5C4CCC(=O)NC4=O)CC3)CC2)C1 (stereo not drawn) .
Reply: < 20%

---

target: Protein cereblon/Histone acetyltransferase p300 (Homo sapiens) (UniProt Q09472+Q96SW2); experiment: Protac activity at E3 ubiquitin ligase/P300 in human LNcaP cells assessed as degradation of P300 at 10 nM by immunoblotting analysis relative to control; format: cell-based
Below: a set of entries, each annotated with reported Activity.

Task item: Can you look up the measured Activity of CC(=O)N1CCc2c(c(N3CCCc4cc(-c5cnn(C)c5)c(C(F)F)cc43)nn2C2CCN(C(=O)CCCN3CCN(Cc4ccc5c(c4)n(C)c(=O)n5C4CCC(=O)NC4=O)CC3)CC2)C1 (stereo not drawn) for me?
Reply: > 80%

Task item: Look up Activity: CNC(=O)N1CCc2c(c(N3CCCc4cc(-c5cnn(C)c5)c(C(F)F)cc43)nn2C2CCN(C(=O)CCCCCCCNc3cccc4c3C(=O)N(C3CCC(=O)NC3=O)C4=O)CC2)C1 (stereo not drawn)
Reply: > 80%

Task item: Given CC(=O)N1CCc2c(c(N3CCCc4cc(-c5cnn(C)c5)c(C(F)F)cc43)nn2C2CCN(C(=O)CCCCCCCNc3cccc4c3C(=O)N(C3CCC(=O)NC3=O)C4=O)CC2)C1 (stereo not drawn) , state its recorded Activity.
Reply: > 80%

---

target: Protein cereblon/Histone acetyltransferase p300 (Homo sapiens) (UniProt Q09472+Q96SW2); assay: Protac activity at E3 ubiquitin ligase/P300 in human LNcaP cells assessed as degradation of P300 at 10 nM by immunoblotting analysis relative to control; format: cell-based
endpoint: Activity

Task item: Need Activity of CNC(=O)N1CCc2c(c(N3CCCc4cc(-c5cnn(C)c5)c(C(F)F)cc43)nn2C2CCN(C(=O)CCCCCn3c(=O)n(C4CCC(=O)NC4=O)c4ccccc43)CC2)C1 (stereo unspecified) , thanks.
Reply: > 80%

Task item: Which Activity is listed for CC(=O)N1CCc2c(c(N3CCCc4cc(-c5cnn(C)c5)c(C(F)F)cc43)nn2C2CCN(CCN3CCC(CCc4cccc5c4n(C)c(=O)n5C4CCC(=O)NC4=O)CC3)CC2)C1 (stereo unspecified) ?
Reply: > 80%

Task item: Return reported Activity; argument: CC(=O)N1CCc2c(c(N3CCCc4cc(-c5cnn(C)c5)c(C(F)F)cc43)nn2C2CCN(CCN3CCOC(CNc4cccc5c4C(=O)N(C4CCC(=O)NC4=O)C5=O)C3)CC2)C1 (stereo unspecified)
Reply: > 80%

Task item: What does the record list as Activity for CC(=O)N1CCc2c(c(N3CCCc4cc(-c5cnn(C)c5)c(C(F)F)cc43)nn2C2CCN(CCCC3CCN(c4cccc5c4C(=O)N(C4CCC(=O)NC4=O)C5=O)CC3)CC2)C1 (stereo unspecified) ?
Reply: > 80%

Task item: I am curious: what Activity value has been reported for CNC(=O)N1CCc2c(c(N3CCCc4cc(-c5cnn(C)c5)c(C(F)F)cc43)nn2C2CCN(C(=O)CCCCCNc3cccc4c3C(=O)N(C3CCC(=O)NC3=O)C4=O)CC2)C1 (stereo unspecified) ?
Reply: > 80%

Task item: Could you tell me which Activity is on file for CC(=O)N1CCc2c(c(N3CCCc4cc(-c5cnn(C)c5)c(C(F)F)cc43)nn2C2CCN(C(=O)CCCCCNc3cccc4c3C(=O)N(C3CCC(=O)NC3=O)C4=O)CC2)C1 (stereo unspecified) ?
Reply: < 50%
